// provenance: the kinase profiling compilation of Christmann-Franck et al. (2016)

# system.name: KDR (human) (UniProt P35968)
# Sequence (P35968 whole entry, looked up): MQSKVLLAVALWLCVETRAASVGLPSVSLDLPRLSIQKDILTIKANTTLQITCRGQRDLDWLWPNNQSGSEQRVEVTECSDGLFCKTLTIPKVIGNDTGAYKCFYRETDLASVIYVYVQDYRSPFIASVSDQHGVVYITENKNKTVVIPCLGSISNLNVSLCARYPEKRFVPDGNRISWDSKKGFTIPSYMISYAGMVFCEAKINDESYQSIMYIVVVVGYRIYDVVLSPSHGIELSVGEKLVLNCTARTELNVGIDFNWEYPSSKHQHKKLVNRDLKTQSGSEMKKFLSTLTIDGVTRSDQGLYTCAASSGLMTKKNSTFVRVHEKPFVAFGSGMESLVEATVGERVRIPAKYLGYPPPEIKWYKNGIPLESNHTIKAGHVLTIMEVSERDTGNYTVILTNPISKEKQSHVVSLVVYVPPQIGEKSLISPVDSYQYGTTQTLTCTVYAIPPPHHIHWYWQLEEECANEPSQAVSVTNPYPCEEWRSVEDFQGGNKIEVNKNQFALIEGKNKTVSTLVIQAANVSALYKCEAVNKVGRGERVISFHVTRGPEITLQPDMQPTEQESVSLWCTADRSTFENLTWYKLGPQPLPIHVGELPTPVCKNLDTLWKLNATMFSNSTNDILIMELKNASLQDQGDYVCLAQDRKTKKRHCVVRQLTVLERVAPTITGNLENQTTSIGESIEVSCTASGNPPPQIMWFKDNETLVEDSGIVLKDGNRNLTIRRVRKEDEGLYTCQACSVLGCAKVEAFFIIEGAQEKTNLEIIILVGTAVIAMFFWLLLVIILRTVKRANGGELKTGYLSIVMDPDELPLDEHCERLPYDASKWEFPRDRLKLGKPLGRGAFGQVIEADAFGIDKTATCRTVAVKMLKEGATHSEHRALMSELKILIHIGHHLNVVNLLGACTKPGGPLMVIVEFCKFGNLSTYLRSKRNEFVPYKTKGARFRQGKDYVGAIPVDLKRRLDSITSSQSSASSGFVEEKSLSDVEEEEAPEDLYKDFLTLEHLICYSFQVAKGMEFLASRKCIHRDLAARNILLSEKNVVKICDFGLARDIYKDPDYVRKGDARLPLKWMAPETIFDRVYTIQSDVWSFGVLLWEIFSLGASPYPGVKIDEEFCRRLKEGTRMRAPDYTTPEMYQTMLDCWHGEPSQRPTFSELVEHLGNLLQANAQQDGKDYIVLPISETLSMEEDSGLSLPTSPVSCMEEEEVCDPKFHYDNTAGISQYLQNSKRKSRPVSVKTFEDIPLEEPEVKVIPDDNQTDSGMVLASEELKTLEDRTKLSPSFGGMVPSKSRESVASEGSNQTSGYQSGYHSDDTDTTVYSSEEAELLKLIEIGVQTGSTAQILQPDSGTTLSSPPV
# condition.notes: compound 1.0 µM
experimental.endpoint: inhibition (%)

Look over these answered cases.
{"molecule": "CC[C@@H](CO)Nc1nc(NCc2ccccc2)c2ncn(C(C)C)c2n1", "inhibition [%]": 1.35}
{"molecule": "Cc1ccc(-c2nn(C(C)(C)C)c3ncnc(N)c23)cc1", "inhibition [%]": 70.6}
{"molecule": "CS(=O)c1ccc(-c2nc(-c3ccc(F)cc3)c(-c3ccncc3)[nH]2)cc1 (configuration not stated)", "inhibition [%]": 13.5}
{"molecule": "C#Cc1cccc(Nc2ncnc3cc(OCCOC)c(OCCOC)cc23)c1", "inhibition [%]": 63.6}

P = O=S(=O)(c1cccc2cnccc12)N1CCCNCC1
Q = CS(=O)(=O)CCNCc1ccc(-c2ccc3ncnc(Nc4ccc(OCc5cccc(F)c5)c(Cl)c4)c3c2)o1
R = O=C1NCCc2[nH]c(-c3ccnc(-c4ccccc4F)c3)cc21
Query: rank_up(items): orders items by reported inhibition in ascending numerical order. Sort the labels as requested; that list is your answer.
Result: Q, P, R
